# TEST: in vivo
# RUN_PARAMETERS: male, dog, in vivo, 6 mg/kg, beagle dog, fasting, single 6 mg/kg P.O; group Mean (6 animals); read-out: Blood voriconazole concentration, Time 0.053 hr
# Description: 24 male beagle dogs were divided into 4 groups, 6 animals per group. Voriconazole as a control drug was once administered to the animals via an oral route under fasting conditions. […] Thereafter, the pharmacokinetic (PK) profiles of the drugs were determined to calculate PK parameters of the drugs and evaluate the pharmacokinetics of the drugs. […] For intravenous administration, the doses of efinaconazole (intravenous administration group G1) were calculated based on the body weights of the animals. […]
ASSAY_READOUT: concentration at 0.053 h

Enquiry: Consider the compound C[C@@H](c1ncncc1F)[C@](O)(Cn1cncn1)c1ccc(F)cc1F and give its measured concentration at 0.053 h.
Return: 443 ng/mL

These entries and their values trace back to patent US20250281476A1.
